- System: morningglory
- assay_details: Test E preemergence
- Format: in vivo, Ipomoea coccinea
- condition_label: 250 g ai/ha, scale 0 to 100, 0 no effect, 100 complete control
metric_name: Plant response rating, Morningglory

> print(dat)
                                   compound                          metric.name  value
1  N#Cc1cccc(Oc2ncc(Cl)cn2)c1-n1cc(C(F)(F)F)cn1 [Compound 58]  Plant response rating, Morningglory    100
2  N#Cc1cccc(Oc2ncc(Br)cn2)c1-n1cc(C(F)(F)F)cn1 [Compound 59]  Plant response rating, Morningglory    100
3  FC(F)(F)c1cnn(-c2ccccc2Oc2ncc(Br)cn2)c1 [Compound 18]  Plant response rating, Morningglory     35
4  CCOc1cnn(-c2c(C#N)cccc2Oc2ncc(F)cn2)c1 [Compound 89]  Plant response rating, Morningglory    100
